Recorded values, source patent US20260139055A1.

# Subject Of Test: canine FcRn complex (FcRn-alpha subunit and beta-microglobulin), His-tagged, biotin labeled (canine)
# Protocol Text: SPR (Biacore), biotin-FcRn captured on SA surface, IgG flowed over, pH 6, 15 C
Each entry below lists one item and its recorded Kd value.
Could you give me the number in nM? Just the number is fine.

Binder: canine IgGB (65) mAb with mutation Q311F (antibody, part only; not given: Variable domains, not shown: another chain or arm of the molecule) constant: ASTTAPSVFPLAPSCGSTSGSTVALACLVSGYFPEPVTVSWNSGSLTSGVHTFPSVLQSSGLYSLSSMVTVPSSRWPSETFTCNVAHPASKTKVDKPVPKRENGRVPRPPDCPKCPAPEMLGGPSVFIFPPKPKDTLLIARTPEVTCVVVDLDPEDPEVQISWFVDGKQMQTAKTQPREEQFNGTYRVVSVLPIGHFDWLKGKQFTCKVNNKALPSPIERTISKARGQAHQPSVYVLPPSREELSKNTVSLTCLIKDFFPPDIDVEWQSNGQQEPESKYRTTPPQLDEDGSYFLYSKLSVDKSRWQRGDTFICAVMHEALHNHYTQESLSHSPGK
Output Unit: nM
Kd: 33

# context switch: different binder, same Kd
Identify the reported Kd for the following entry. canine IgGB (65) mAb with mutation Q311L (antibody, part only; not given: Variable domains, not shown: another chain or arm of the molecule) constant: ASTTAPSVFPLAPSCGSTSGSTVALACLVSGYFPEPVTVSWNSGSLTSGVHTFPSVLQSSGLYSLSSMVTVPSSRWPSETFTCNVAHPASKTKVDKPVPKRENGRVPRPPDCPKCPAPEMLGGPSVFIFPPKPKDTLLIARTPEVTCVVVDLDPEDPEVQISWFVDGKQMQTAKTQPREEQFNGTYRVVSVLPIGHLDWLKGKQFTCKVNNKALPSPIERTISKARGQAHQPSVYVLPPSREELSKNTVSLTCLIKDFFPPDIDVEWQSNGQQEPESKYRTTPPQLDEDGSYFLYSKLSVDKSRWQRGDTFICAVMHEALHNHYTQESLSHSPGK
19.1
